Reference for the values: paper PMC2880883

biological target: hA3AR (Homo sapiens, UniProt P0DMS8); assay: Radioligand membrane binding, [125I]AB-MECA, stably transfected CHO cells; conditions: read-out: Binding, Ki app, A3; [125I]AB-MECA; dendrimer concentration; mean ± SEM, n = 3
Sequence (P0DMS8 whole entry): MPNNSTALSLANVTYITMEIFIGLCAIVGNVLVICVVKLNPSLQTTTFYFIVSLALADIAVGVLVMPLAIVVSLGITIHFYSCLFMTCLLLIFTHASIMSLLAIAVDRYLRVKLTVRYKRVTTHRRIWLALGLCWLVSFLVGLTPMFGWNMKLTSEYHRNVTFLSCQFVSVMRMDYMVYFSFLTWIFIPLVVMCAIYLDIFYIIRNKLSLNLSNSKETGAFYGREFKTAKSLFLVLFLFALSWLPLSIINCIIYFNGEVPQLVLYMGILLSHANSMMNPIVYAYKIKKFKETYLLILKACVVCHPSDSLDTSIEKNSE

{"Substance": "PAMAMG5.5-1(AF488-ED)-60(N-(2-aminoethyl)-ADAC) [compound 8]", "Ki": "15 nM"}

---

Target: hA1AR (Homo sapiens)
Sequence (P30542 1-326): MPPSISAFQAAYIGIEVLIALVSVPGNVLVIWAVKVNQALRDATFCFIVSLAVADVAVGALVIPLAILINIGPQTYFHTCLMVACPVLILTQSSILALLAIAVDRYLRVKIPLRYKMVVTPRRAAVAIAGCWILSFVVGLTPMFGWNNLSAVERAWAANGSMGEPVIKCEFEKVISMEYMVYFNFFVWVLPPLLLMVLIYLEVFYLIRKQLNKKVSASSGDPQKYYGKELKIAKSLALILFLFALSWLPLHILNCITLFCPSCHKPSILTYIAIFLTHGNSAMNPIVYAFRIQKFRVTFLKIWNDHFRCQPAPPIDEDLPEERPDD
Experiment: Radioligand membrane binding, [3H]CCPA, stably transfected CHO cells
Conditions: read-out: Binding, Ki app, A1, dendrimer concentration, mean ± SEM, n = 3

{"Substance": "PAMAMG5.5-1(AF488-ED)-60(N-(2-aminoethyl)-ADAC) [compound 8]", "Tgt": "hA1AR (Homo sapiens)", "Ki": "140 nM"}
